These entries and their values trace back to PubChem BioAssay AID2060511.

Test system: 422866-222-R5-J1-PDC spheroids with HUVEC/MSC, viability
Assay: Anticancer human tumor 422866-222-R5-J1-PDC patient-derived pancreatic adenocarcinoma cell line growth inhibition [GQUAD]
Details: second compound 3.16 µM; first compound 0.1 µM; stronger effect = lower value
Source text: DNA G-quadruplex Stabilizer Agents in Combinations in Complex Spheroids A high-throughput screen of multi-cell type tumor spheroids was designed to identify active combinations of DNA G-quadruplex stabilizer agents and targeted small molecules. […] Compounds. […] If the clinical Cmax for an agent had not been determined, the highest concentration tested was 10 microM. […]
outcomeMeasure: viability, T/C (%)
Respond numerically; units are % and should not be typed.

compound: C=CCn1c(=O)c2cnc(Nc3ccc(N4CCN(C)CC4)cc3)nc2n1-c1cccc(C(C)(C)O)n1 + CN(C)c1ccc(Nc2c3ccc(NC(=O)CCN4CCCC4)cc3nc3cc(NC(=O)CCN4CCCC4)ccc23)cc1
experimentalSystem: 422866-222-R5-J1-PDC spheroids with HUVEC/MSC, viability
outcomeMeasure: viability, T/C
measured: 87.2
//
compound: CC(C)n1c(=O)n(C)c2cnc3cc(F)c(-c4ccc(OCCCN5CCCCC5)nc4)cc3c21 + CN(C)c1ccc(Nc2c3ccc(NC(=O)CCN4CCCC4)cc3nc3cc(NC(=O)CCN4CCCC4)ccc23)cc1
experimentalSystem: 422866-222-R5-J1-PDC spheroids with HUVEC/MSC, viability
outcomeMeasure: viability, T/C
measured: 80.1

Okay, next one:
Task: Recorded viability, T/C of CC(C)(O)C1CCC(Nc2ccc3ncc(-c4cccc(C(F)(F)F)c4)n3n2)CC1 (stereo not drawn) + Cc1cnc(CNC(=O)c2c(=O)c3ccc(N4CCCN(C)CC4)nc3n3c2sc2ccccc23)cn1 , please.
Output: 101

* * *

Tested on: 422866-222-R5-J1-PDC spheroids with HUVEC/MSC, viability
Assay: Anticancer human tumor 422866-222-R5-J1-PDC cell line growth inhibition [GQUAD];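 note: spheroids exposed to compounds for seven days before reading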
Settings: curve of first compound; second compound 3.16 µM
Collected IC50 values appear next to each entry.

compound: CCCS(=O)(=O)Nc1ccc(F)c(C(=O)c2c[nH]c3ncc(-c4ccc(Cl)cc4)cc23)c1F + CN(C)c1ccc(Nc2c3ccc(NC(=O)CCN4CCCC4)cc3nc3cc(NC(=O)CCN4CCCC4)ccc23)cc1
IC50: > 10000 nM

compound: CC(=O)O[C@H]1C(=O)[C@@]2(C)[C@H]([C@H](OC(=O)c3ccccc3)[C@]3(O)C[C@H](OC(=O)[C@H](O)[C@@H](NC(=O)c4ccccc4)c4ccccc4)C(C)=C1C3(C)C)[C@]1(OC(C)=O)CO[C@@H]1C[C@@H]2O + Cc1[nH]c2ccc(F)cc2c1-c1nc2c3cccnc3c3ncccc3c2[nH]1
IC50: 2160 nM

Okay, next one:
Task: Recorded IC50 of O=C(NO)c1cnc(N2CCN(S(=O)(=O)c3ccc4ccccc4c3)CC2)nc1 + CN(C)c1ccc(Nc2c3ccc(NC(=O)CCN4CCCC4)cc3nc3cc(NC(=O)CCN4CCCC4)ccc23)cc1 , please.
Output: 566 nM

* * *

Test system: 422866-222-R5-J1-PDC spheroids with HUVEC/MSC, viability
Test: Anticancer human tumor 422866-222-R5-J1-PDC cell line growth inhibition [GQUAD];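 note: spheroids exposed to compounds for seven days before reading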
Conditions: curve of first compound; second compound 3.16 µM
outcomeMeasure: pIC50
// pIC50 here means minus log10 of the molar concentration (mol/L)

Task: Recorded pIC50 of CC[C@@]1(O)C(=O)OCc2c1cc1n(c2=O)Cc2cc3c(CN(C)C)c(O)ccc3nc2-1 + Cc1[nH]c2ccc(F)cc2c1-c1nc2c3cccnc3c3ncccc3c2[nH]1 , please.
Output: 7.10

* * *

Test system: 422866-222-R5-J1-PDC spheroids with HUVEC/MSC, viability
Assay: Anticancer human tumor 422866-222-R5-J1-PDC cell line growth inhibition [GQUAD];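 note: spheroids exposed to compounds for seven days before reading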;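 for viability, T/C: percent viability relative to DMSO vehicle control taken as 100%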
Conditions: second compound 0.0316 µM; first compound 3.16 µM; stronger effect = lower value
// returns false unless viability, T/C is strictly below 50%, in which case true

Task: I'd appreciate it if you could check whether C#Cc1c(F)ccc2cc(O)cc(-c3ncc4c(N5CC6CCC(C5)N6)nc(OCC56CCCN5CC(F)C6)nc4c3F)c12 (stereo not drawn) + Cc1cnc(CNC(=O)c2c(=O)c3ccc(N4CCCN(C)CC4)nc3n3c2sc2ccccc23)cn1 has viability, T/C smaller than 50%.
Output: true

Task: Would you mind doing C#Cc1c(F)ccc2cc(O)cc(-c3ncc4c(N5CC6CCC(C5)N6)nc(OCC56CCCN5CC(F)C6)nc4c3F)c12 (stereo not drawn) + CN(C)c1ccc(Nc2c3ccc(NC(=O)CCN4CCCC4)cc3nc3cc(NC(=O)CCN4CCCC4)ccc23)cc1 as well?
Output: true

Task: Would you mind doing C=CC(=O)N1CCN(c2nc(=O)n(-c3c(C)ccnc3C(C)C)c3nc(-c4c(O)cccc4F)c(F)cc23)C(C)C1 (stereo not drawn) + Cc1[nH]c2ccc(F)cc2c1-c1nc2c3cccnc3c3ncccc3c2[nH]1 as well?
Output: true

Task: Would you mind doing COc1cccc2c1C(=O)c1c(O)c3c(c(O)c1C2=O)CC(O)(C(=O)CO)CC3OC1CC(N)C(O)C(C)O1 (stereo not drawn) + CN(C)c1ccc(Nc2c3ccc(NC(=O)CCN4CCCC4)cc3nc3cc(NC(=O)CCN4CCCC4)ccc23)cc1 as well?
Output: true

Task: Would you mind doing Nc1ccn(C2OC(CO)C(O)C2(F)F)c(=O)n1 (stereo not drawn) + Cc1[nH]c2ccc(F)cc2c1-c1nc2c3cccnc3c3ncccc3c2[nH]1 as well?
Output: true

Task: Would you mind doing O=c1[nH]cc(F)c(=O)[nH]1 + Cc1[nH]c2ccc(F)cc2c1-c1nc2c3cccnc3c3ncccc3c2[nH]1 as well?
Output: false

* * *

System: 422866-222-R5-J1-PDC spheroids with HUVEC/MSC, viability
Assay: Anticancer human tumor 422866-222-R5-J1-PDC cell line growth inhibition [GQUAD];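 note: spheroids exposed to compounds for seven days before reading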;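 for viability, T/C: percent viability relative to DMSO vehicle control taken as 100%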
Details: second compound 10 µM; first compound 10 µM; stronger effect = lower value
Collected viability, T/C values appear next to each entry.

Known viability, T/C results, listed for orientation:
molecule: C=CC(=O)N1CCN(c2nc(=O)n(-c3c(C)ccnc3C(C)C)c3nc(-c4c(O)cccc4F)c(F)cc23)C(C)C1 (stereo unspecified) + CN(C)c1ccc(Nc2c3ccc(NC(=O)CCN4CCCC4)cc3nc3cc(NC(=O)CCN4CCCC4)ccc23)cc1
experimentalSystem: 422866-222-R5-J1-PDC spheroids with HUVEC/MSC, viability
viability, T/C: 29.1%
//
molecule: CC1COCCN1c1cc(-c2ccnn2C)c2ccnc(-c3ccn[nH]3)c2n1 (stereo unspecified) + Cc1[nH]c2ccc(F)cc2c1-c1nc2c3cccnc3c3ncccc3c2[nH]1
experimentalSystem: 422866-222-R5-J1-PDC spheroids with HUVEC/MSC, viability
viability, T/C: 84.2%
//
molecule: CC1COCCN1c1cc(C2(O)CC3CCC(C2)O3)c2cnn(-c3ccn[nH]3)c2n1 (stereo unspecified) + Cc1[nH]c2ccc(F)cc2c1-c1nc2c3cccnc3c3ncccc3c2[nH]1
experimentalSystem: 422866-222-R5-J1-PDC spheroids with HUVEC/MSC, viability
viability, T/C: 90.8%

Task: Field: viability, T/C (422866-222-R5-J1-PDC spheroids with HUVEC/MSC, viability). Entry: C=CC(=O)N1CCN(c2nc(=O)n(-c3c(C)ccnc3C(C)C)c3nc(-c4c(O)cccc4F)c(F)cc23)C(C)C1 (stereo unspecified) + Cc1cnc(CNC(=O)c2c(=O)c3ccc(N4CCCN(C)CC4)nc3n3c2sc2ccccc23)cn1
Output: 34.2%

Task: Would you mind doing O=c1[nH]cc(F)c(=O)[nH]1 + Cc1cnc(CNC(=O)c2c(=O)c3ccc(N4CCCN(C)CC4)nc3n3c2sc2ccccc23)cn1 as well?
Output: 76.4%

Task: Would you mind doing COc1ncnc(C2CC2)c1-c1ncc2cnn(Cc3ccc(-c4nc(C(F)(F)F)cn4C(C)C)cc3)c2n1 + CN(C)c1ccc(Nc2c3ccc(NC(=O)CCN4CCCC4)cc3nc3cc(NC(=O)CCN4CCCC4)ccc23)cc1 as well?
Output: 58%

Task: Would you mind doing COc1cccc2c1C(=O)c1c(O)c3c(c(O)c1C2=O)CC(O)(C(=O)CO)CC3OC1CC(N)C(O)C(C)O1 (stereo unspecified) + Cc1cnc(CNC(=O)c2c(=O)c3ccc(N4CCCN(C)CC4)nc3n3c2sc2ccccc23)cn1 as well?
Output: 26.7%

Task: Would you mind doing COc1cc(C2c3cc4c(cc3C(OC3OC5COC(C)OC5C(O)C3O)C3COC(=O)C23)OCO4)cc(OC)c1O (stereo unspecified) + Cc1cnc(CNC(=O)c2c(=O)c3ccc(N4CCCN(C)CC4)nc3n3c2sc2ccccc23)cn1 as well?
Output: 52.1%

Task: Would you mind doing Cc1cccc(N(C)C(=O)C2C(O)CCN2c2nc(C)cc(C(F)(F)F)c2C#N)c1 (stereo unspecified) + Cc1[nH]c2ccc(F)cc2c1-c1nc2c3cccnc3c3ncccc3c2[nH]1 as well?
Output: 96.9%

Task: Would you mind doing COc1ccc([C@@H](O)c2cc(-c3ncnc4cc(N5CCOCC5)ccc34)c(F)cc2Cl)nn1 + Cc1cnc(CNC(=O)c2c(=O)c3ccc(N4CCCN(C)CC4)nc3n3c2sc2ccccc23)cn1 as well?
Output: 31.6%

Task: Would you mind doing COc1ccc([C@@H](O)c2cc(-c3ncnc4cc(N5CCOCC5)ccc34)c(F)cc2Cl)nn1 + CN(C)c1ccc(Nc2c3ccc(NC(=O)CCN4CCCC4)cc3nc3cc(NC(=O)CCN4CCCC4)ccc23)cc1 as well?
Output: 34.9%
